test system: MCF7 breast; assay: NCI tumour cell line growth inhibition, 48 h; in the data active means GI50 below about 0.43 µM; inactive means the rest
Log the outcome using a class from y for active, n for inactive

COc1cc2nc3sc(C(=O)Nc4ccc(C(=O)OC(C)C)cc4)c(C(=O)Nc4ccc(Cl)cc4C)n3c(=O)c2cc1OC
n
O=C(Nc1ccccc1O)c1cccc(NC2=C(Cl)C(=O)N(Cc3ccccc3)C2=O)c1
n
CC(=O)N1N=C2/C(=C/c3ccccc3)CC(C)CC2C1c1ccccc1 (stereo unspecified)
n
CC[C@@H](C(=O)[C@@H](C)[C@@H](O)[C@H](C)[C@@H]1O[C@@H]([C@@H](CC)C(=O)O)CC[C@@H]1C)C1O[C@]2(C=CC(=O)[C@]3(CC[C@@](C)([C@H]4CC[C@](O)(CC)[C@H](C)O4)O3)O2)[C@H](C)C[C@@H]1C (stereo partly specified)
y
COc1cc(NS(C)(=O)=O)ccc1Nc1c2ccc(Cl)cc2nc2c(OC)cccc12
y

Consider the additional compound presented here.
What classification did CC[C@H](C)[C@H]1NC(=O)[C@@H](N[C@](C)(O)[C@@H](N)CC(C)C)[C@@H](C)OC(=O)[C@H](Cc2ccc(OC)cc2)N(C)C(=O)[C@@H]2CCCN2C(=O)[C@H](CC(C)C)NC(=O)[C@@H](C)C(=O)[C@H](C(C)C)OC(=O)C[C@@H]1O end up with in this test?
y
